- PROTOCOL SUMMARY: Critical micelle concentration (CMC) measurement with pyrene probe
- Format: physicochemical
Non-standard residues stand in square brackets, D forms with d. Residues, ends and D or L forms follow the SMILES beside them. *: point of attachment. pY = N[C@@H](Cc1ccc(OP(=O)(O)O)cc1)C(=O)O; NBD = O=[N+]([O-])c1ccc(*)c2nonc12; βAla = NCCC(=O)O
Catalogue of critical micelle concentration (CMC) values

| MOLECULE | critical micelle concentration (CMC) |
| --- | --- |
| CC(C)C[C@H](NC(=O)CCNc1ccc([N+](=O)[O-])c2nonc12)C(=O)N[C@@H](CC(C)C)C(=O)N[C@@H](CC(C)C)C(=O)N[C@@H](CC(C)C)C(=O)N[C@@H](Cc1ccc(O)cc1)C(=O)O [compound 6, NBD-βA-LLLLY] ({NBD-βAla}-LLLLY-OH) | 8.1 µM |
| CC(C)C[C@H](NC(=O)[C@H](CC(C)C)NC(=O)[C@H](Cc1ccc(OP(=O)(O)O)cc1)NC(=O)[C@H](CC(C)C)NC(=O)[C@H](CC(C)C)NC(=O)CCNc1ccc([N+](=O)[O-])c2nonc12)C(=O)O [compound 7, NBD-βA-LLpYLL] ({NBD-βAla}-LL[pY]LL-OH) | 159.9 UM |
| CC(C)C[C@@H](NC(=O)CCNc1ccc([N+](=O)[O-])c2nonc12)C(=O)N[C@H](CC(C)C)C(=O)N[C@H](CC(C)C)C(=O)N[C@H](CC(C)C)C(=O)N[C@@H](Cc1ccc(OP(=O)(O)O)cc1)C(=O)O [compound 9, NBD-βA-llllpY] ({NBD-βAla}-[dL][dL][dL][dL][pY]-OH) | 146.8 µM |
| CC(C)C[C@H](NC(=O)CCNc1ccc([N+](=O)[O-])c2nonc12)C(=O)N[C@@H](CC(C)C)C(=O)N[C@@H](CC(C)C)C(=O)N[C@@H](CC(C)C)C(=O)N[C@@H](Cc1ccc(OP(=O)(O)O)cc1)C(=O)O [compound 5, NBD-βA-LLLLpY] ({NBD-βAla}-LLLL[pY]-OH) | 86.1 µM |
